test: Toxicokinetics (blood), 14-day inhalation study in Sprague Dawley rats; assay type: in vivo, rat; conditions: both sexes, Sprague-Dawley, rat, blood, inhaled or intranasal, 3.4 mg/kg/day, SD rat blood, inhalation, 3.4 mg/kg/day, Day 1, Mean; read-out: Cmax, mean (SE)
Metric: Cmax

Q: // lookup Cmax for "CCn1c(C(C)(C)Oc2ccc(F)cc2F)nc2cc(NC(=O)Cc3ccc(S(=O)(=O)CC)cc3)ccc21"
Ans: 189 ng/mL

* * *

experiment: Toxicokinetics (blood), 14-day inhalation study in Sprague Dawley rats; assay type: in vivo, rat; settings: male, Sprague-Dawley, rat, in vivo, inhaled or intranasal, 32.1 mg/kg/day, SD rat blood, inhalation, 32.1 mg/kg/day, Day 1, Male; read-out: Cmax, mean (SE)
Metric: Cmax (ng/mL)
# output: bare number, implied unit ng/mL

Q: Entry "CCn1c(C(C)(C)Oc2ccc(F)cc2F)nc2cc(NC(=O)Cc3ccc(S(=O)(=O)CC)cc3)ccc21" : reported Cmax = ?
Ans: 534
